The reported measurements were obtained from ChEMBL document CHEMBL1151359.

test system: Phytophthora cactorum; assay: Effect on Phytophthora cactorum growth assessed as colony diameter at 10 mg/L after 6 days in solid culture medium; type: functional
Kindly supply the reported Activity values for the records listed here.
Give bare numbers, in mm.

query: Fill in the blank: the reported Activity of CC(C)=CCC[C@@H](C)[C@H]1CC[C@@]2(C)C3=C(CC[C@]12C)[C@@]1(C)CC[C@H](O)C(C)(C)[C@@H]1CC3 [LANOSTEROL] is ____.
result: 30.5

Working through the 3 compounds below one at a time, give Activity for each.
1. C=C(C)[C@H]1CC[C@]2(C)[C@H]3CC[C@@H]4[C@@]5(C)CCCC(C)(C)[C@@H]5CC[C@@]4(C)[C@]3(C)CC[C@@H]12
2. C=C(C)[C@@H]1CC[C@]2(C)CC[C@]3(C)[C@H](CC[C@@H]4[C@@]5(C)CC[C@H](O)C(C)(C)[C@@H]5CC[C@]43C)[C@@H]12 [LUPEOL]
3. C=C(C)[C@@H]1CC[C@]2(CO)CC[C@]3(C)[C@H](CC[C@@H]4[C@@]5(C)CC[C@H](O)C(C)(C)[C@@H]5CC[C@]43C)[C@@H]12 [BETULIN]

result:
1. 30
2. 29.5
3. 30.5
